Method description: Pharmacokinetics in SD rats
Assay type: in vivo, rat
Condition summary: rat, plasma; po 20 mg/kg, male SD rats
Experimental endpoint: Tmax (h)
Reply with just the number (in h).

Ask: Bench note: what Tmax did CNC(=O)c1cccc(C)c1Nc1nc(Nc2ccc(N3CCN(C4C5CC6CC4CC(O)(C6)C5)CC3)cc2OC)ncc1C(F)(F)F (stereo not shown) show?
Reply: 1

====

Method description: Pharmacokinetics in SD rats
Format: in vivo, rat
Condition summary: male, SD, rat, plasma; single oral dose 20 mg/kg, rats; read-out: area under the curve (AUC)
Protocol: The pharmacokinetics (PK) study was conducted in male SD rats. Three rats received a single-dose intravenous injection of SJP1602 at 5 mg/kg, and another set of three rats received a single-dose oral administration of SJP1602 at 20 mg/kg. […] Blood drug concentrations over time were determined by drawing blood after 0.17, 0.5, 1, 2, 4, 6, and 24 h. Plasma was isolated using K3EDTA anticoagulation tubes, and the drug concentration in the plasma was analyzed by LC/MS/MS (Waters, MA, USA). […]
Experimental endpoint: AUC
Respond with a number, then the unit of measure.

Ask: Bench note: what AUC did CNC(=O)c1cccc(C)c1Nc1nc(Nc2ccc(N3CCN(C4C5CC6CC4CC(O)(C6)C5)CC3)cc2OC)ncc1C(F)(F)F (stereo not shown) show?
Reply: 22 µM·h

====

System tested: FAK [pY397] in MDA-MB-453 cells (Homo sapiens, UniProt Q05397)
Construct: endogenous in cells
Method description: FAK [pY397] ELISA in MDA-MB-453 cells
Condition summary: MDA-MB-453, 1 h treatment, mean ± SEM (n = 3); read-out: IC50 FAK phosphorylation (pY397 ELISA)
Experimental endpoint: pIC50
pIC50 (log units): -log10 of the concentration in mol/L.

Ask: Bench note: what pIC50 did CNC(=O)c1cccc(C)c1Nc1nc(Nc2ccc(N3CCN(C4C5CC6CC4CC(O)(C6)C5)CC3)cc2OC)ncc1C(F)(F)F (stereo not shown) show?
Reply: 7.37

====

System tested: FAK [pY397] in HCC70 cells (Homo sapiens)
Construct: endogenous in cells
Sequence (Q05397 whole entry): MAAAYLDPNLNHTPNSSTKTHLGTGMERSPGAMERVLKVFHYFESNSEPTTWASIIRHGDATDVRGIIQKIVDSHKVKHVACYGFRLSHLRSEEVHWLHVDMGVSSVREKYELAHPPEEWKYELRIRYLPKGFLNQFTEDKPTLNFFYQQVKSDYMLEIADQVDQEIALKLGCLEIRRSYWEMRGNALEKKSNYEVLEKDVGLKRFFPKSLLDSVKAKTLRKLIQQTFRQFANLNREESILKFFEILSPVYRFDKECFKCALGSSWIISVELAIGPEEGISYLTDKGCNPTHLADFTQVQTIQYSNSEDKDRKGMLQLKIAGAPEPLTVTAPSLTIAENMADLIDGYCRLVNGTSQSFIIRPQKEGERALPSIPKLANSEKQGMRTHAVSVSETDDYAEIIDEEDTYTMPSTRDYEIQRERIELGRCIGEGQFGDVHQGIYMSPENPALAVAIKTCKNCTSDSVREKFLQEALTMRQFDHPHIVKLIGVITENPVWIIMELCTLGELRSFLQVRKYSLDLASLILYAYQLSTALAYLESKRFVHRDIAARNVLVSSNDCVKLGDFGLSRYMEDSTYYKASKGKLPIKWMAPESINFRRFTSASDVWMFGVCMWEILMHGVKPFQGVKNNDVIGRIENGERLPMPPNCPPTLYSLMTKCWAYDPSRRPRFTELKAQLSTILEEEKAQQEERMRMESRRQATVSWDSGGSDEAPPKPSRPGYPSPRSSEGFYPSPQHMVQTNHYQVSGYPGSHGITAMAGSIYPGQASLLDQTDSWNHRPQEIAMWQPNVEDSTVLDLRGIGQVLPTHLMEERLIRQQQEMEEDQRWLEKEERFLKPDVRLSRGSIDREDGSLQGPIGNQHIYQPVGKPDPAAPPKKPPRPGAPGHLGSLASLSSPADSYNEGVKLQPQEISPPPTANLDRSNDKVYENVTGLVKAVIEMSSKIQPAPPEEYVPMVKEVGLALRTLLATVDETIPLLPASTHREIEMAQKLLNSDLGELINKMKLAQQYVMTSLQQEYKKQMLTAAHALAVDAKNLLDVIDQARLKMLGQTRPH
Method description: FAK [pY397] ELISA in HCC70 cells
Condition summary: HCC70, 1 h treatment, mean ± SEM (n = 3); read-out: IC50 FAK phosphorylation (pY397 ELISA)
Experimental endpoint: IC50
Respond with a number, then the unit of measure.

Ask: Bench note: what IC50 did CNC(=O)c1cccc(C)c1Nc1nc(Nc2ccc(N3CCN(C4C5CC6CC4CC(O)(C6)C5)CC3)cc2OC)ncc1C(F)(F)F (stereo not shown) [SJP1602] show?
Reply: 0.083 µM

====

Method description: Cytotoxicity on normal cell line Fa2N4
Format: cell-based
Condition summary: human, Fa2N4 cells (normal cell line); read-out: Cytotoxicity on Normal Cell Lines IC50
Experimental endpoint: IC50 (µM)
Reply with just the number (in µM).

Ask: Bench note: what IC50 did CNC(=O)c1cccc(C)c1Nc1nc(Nc2ccc(N3CCN(C4C5CC6CC4CC(O)(C6)C5)CC3)cc2OC)ncc1C(F)(F)F (stereo not shown) [SJP1602] show?
Reply: 9.62

====

Method description: Pharmacokinetics in SD rats
Format: in vivo, rat
Condition summary: rat, plasma; po 20 mg/kg, male SD rats
Method: The pharmacokinetics (PK) study was conducted in male SD rats. Three rats received a single-dose intravenous injection of SJP1602 at 5 mg/kg, and another set of three rats received a single-dose oral administration of SJP1602 at 20 mg/kg. […] Blood drug concentrations over time were determined by drawing blood after 0.17, 0.5, 1, 2, 4, 6, and 24 h. Plasma was isolated using K3EDTA anticoagulation tubes, and the drug concentration in the plasma was analyzed by LC/MS/MS (Waters, MA, USA). […]
Experimental endpoint: Cmax (ng/mL)
Reply with just the number (in ng/mL).

Ask: Bench note: what Cmax did CNC(=O)c1cccc(C)c1Nc1nc(Nc2ccc(N3CCN(C4C5CC6CC4CC(O)(C6)C5)CC3)cc2OC)ncc1C(F)(F)F (stereo not shown) show?
Reply: 3270
